Reference source for all entries: paper PMC6257630

test system: MRC5 normal fibroblast cells; assay: Photo/dark cytotoxicity (SRB assay); details: MRC5 normal cells, dark; 1 h incubation, 1 h dark, 24 h recovery
pIC50: −log10 of the molar value.
quantity: pIC50

Supply pIC50 measured with MRC5 normal fibroblast cells for [NH2][Pt]([NH2])([Cl])[Cl] [CDDP, cisplatin] . < 4.00
